Origin of values: patent US11384097B2

Reported IC50 is given for each of the following molecules.
Measured target: Human AT2R (Homo sapiens)
Construct: Terbium (Tb) donor label on the receptor; From my own knowledge, the Tag-lite format usually uses an N-terminal SNAP-tag fusion labelled with Lumi4-Tb; expressed in transfected cells
Sequence (P50052 whole entry, the tested form may be a part): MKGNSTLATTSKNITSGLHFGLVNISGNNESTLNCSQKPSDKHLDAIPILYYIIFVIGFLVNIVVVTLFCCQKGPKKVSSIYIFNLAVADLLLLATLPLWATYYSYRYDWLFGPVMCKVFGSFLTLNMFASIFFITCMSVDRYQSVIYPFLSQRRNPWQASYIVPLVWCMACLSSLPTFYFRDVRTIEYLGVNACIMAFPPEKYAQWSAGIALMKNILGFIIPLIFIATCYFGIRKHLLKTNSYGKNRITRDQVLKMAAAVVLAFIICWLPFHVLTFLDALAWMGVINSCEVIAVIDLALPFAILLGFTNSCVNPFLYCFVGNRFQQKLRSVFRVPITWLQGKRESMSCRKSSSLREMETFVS
Assay notes: Antagonistic activity assay on human AT2R ligand binding (Tag-lite HTRF, Tb-labeled-AT2R cells)
Test parameters: AT2 ligand binding, red agonist fluorescent ligand
Remember to put the unit after the number in your answer.

[[record]]
structure_notation = "COc1ccc(COc2c(OC)ccc3c2C[C@@H](C(=O)O)N(c2nc4ccc(C#N)cc4o2)C3)nc1"
measured_target = "Human AT2R (Homo sapiens)"
observed_result = "33 nM"

[[record]]
structure_notation = "COc1ccc(COc2c(OC)ccc3c2C[C@@H](C(=O)O)N(c2nc4ccc(C#N)cc4o2)C3)cn1"
measured_target = "Human AT2R (Homo sapiens)"
observed_result = "33 nM"


Now for another entry.
Inquiry: Name the reported IC50 value associated with the molecule COc1ccc2c(c1COc1ccccc1)C[C@@H](C(=O)NS(=O)(=O)C1CC1)N(c1nc3ccc(F)cc3o1)C2
Reply text: 36 nM
